- measurementTarget: Growth hormone secretagogue receptor type 1 (Homo sapiens)
- Sequence (Q92847 whole entry): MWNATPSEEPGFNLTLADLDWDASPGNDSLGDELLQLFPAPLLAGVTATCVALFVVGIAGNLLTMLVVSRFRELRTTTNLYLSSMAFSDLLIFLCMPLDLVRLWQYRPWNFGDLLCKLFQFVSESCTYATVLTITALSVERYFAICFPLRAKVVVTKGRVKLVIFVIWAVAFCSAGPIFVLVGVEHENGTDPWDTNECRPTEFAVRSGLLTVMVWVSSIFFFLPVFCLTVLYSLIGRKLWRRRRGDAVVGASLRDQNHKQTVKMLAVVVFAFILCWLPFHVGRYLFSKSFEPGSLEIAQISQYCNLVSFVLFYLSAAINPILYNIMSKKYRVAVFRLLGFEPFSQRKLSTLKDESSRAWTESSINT
- protocolText: Agonist activity at human GHS-R1a assessed as maximum activation at 10 uM relative to ghrelin by aequorin assay
- Format: functional
Measured Activity of individual entries
Express it in %; write the number only.

Example cases with answers are listed next.
CCCCCCNC(=O)Nc1ccc(S(=O)(=O)Nc2ccc(CC(C)(C)NCC)cc2)cc1 1
Cc1ccccc1NC(=O)Nc1ccc(S(=O)(=O)Nc2ccc(CC(C)(C)N)cc2)cc1 1
CCCCCCNC(=O)Nc1ccc(S(=O)(=O)Nc2ccc(CCC(C)(C)N)cc2)cc1 3
CC(C)(N)Cc1ccc(NS(=O)(=O)c2ccc(NC(=O)Nc3ccc(C(C)(C)C)cc3)cc2)cc1 1
CC(C)(N)Cc1ccc(NS(=O)(=O)c2ccc(NC(=O)NCc3ccccc3)cc2)cc1 4

Recorded Activity for CCCCCCNC(=O)Nc1ccc(S(=O)(=O)Nc2ccc(CCN)cc2)cc1 with Growth hormone secretagogue receptor type 1 (Homo sapiens), please?
5

Please state recorded Activity (tested on Growth hormone secretagogue receptor type 1 (Homo sapiens)) of CC(C)NC(=O)Nc1ccc(S(=O)(=O)Nc2ccc(CC(C)(C)N)cc2)cc1
1

Record Cc1cccc(NC(=O)Nc2ccc(S(=O)(=O)Nc3ccc(CC(C)(C)N)cc3)cc2)c1 : what is its Activity with Growth hormone secretagogue receptor type 1 (Homo sapiens)?
3

Enter reported Activity observed with Growth hormone secretagogue receptor type 1 (Homo sapiens) for CCCCCCCNC(=O)Nc1ccc(S(=O)(=O)Nc2ccc(CC(C)(C)N)cc2)cc1
3

# returns recorded Activity (system: Growth hormone secretagogue receptor type 1 (Homo sapiens)) for CC(C)(N)Cc1ccc(NS(=O)(=O)c2ccc(NC(=O)Nc3ccccc3)cc2)cc1
1

Request - read-out Activity | tested on Growth hormone secretagogue receptor type 1 (Homo sapiens) | compound CCc1ccc(NC(=O)Nc2ccc(S(=O)(=O)Nc3ccc(CC(C)(C)N)cc3)cc2)cc1
1

----------
Measured log10(IC50) accompanies every entry in the list below.
- measurementTarget: Growth hormone secretagogue receptor type 1 (Homo sapiens)
- protocolText: Inhibition of human GHS-R1a
Scale: log10; quantity: IC50; unit before log: nM

// below: answered compounds
CC(C)c1ccc(NC(=O)Nc2ccc(S(=O)(=O)Nc3ccc(CC(C)(C)N)cc3)cc2)cc1 0.90
Cc1cccc(NC(=O)Nc2ccc(S(=O)(=O)Nc3ccc(CC(C)(C)N)cc3)cc2)c1 1.84
CCCCCCNC(=O)Nc1ccc(S(=O)(=O)Nc2ccc(CCC(C)(C)N)cc2)cc1 2.49
CCCCCNC(=O)Nc1ccc(S(=O)(=O)Nc2ccc(CC(C)(C)N)cc2)cc1 2.38
CCCCCCNC(=O)Nc1ccc(S(=O)(=O)Nc2ccc(CC(C)(C)CN)cc2)cc1 2.65

Fill in the blank: the reported log10(IC50) of CC(C)(N)Cc1ccc(NS(=O)(=O)c2ccc(NC(=O)NCCc3ccccc3)cc2)cc1 is ____.
2.14

// log10(IC50) lookup, key: CCc1ccc(NC(=O)Nc2ccc(S(=O)(=O)Nc3ccc(CC(C)(C)N)cc3)cc2)cc1
1.15

Would you mind telling me what log10(IC50) value was observed for CCCNC(=O)Nc1ccc(S(=O)(=O)Nc2ccc(CC(C)(C)N)cc2)cc1 ?
3.22

Could you share which log10(IC50) value was measured for CCCCNC(=O)Nc1ccc(S(=O)(=O)Nc2ccc(CC(C)(C)N)cc2)cc1 ?
2.68

This collection of values is drawn from ChEMBL document CHEMBL1154292.
